- Protocol notes: yeast display, Sf9 membrane polyspecificity reagent, FACS + sequencing; frameworks hold sequencing errors
Measurement kind: polyreactivity (PSR sort gate)

QVQLVESGGGLVQAGGSLRLSCAASGLIFRFYAMGWYRQAPGKERELVAAISSRGGSTYYADSVKGRFTISRDNAKNTVYLQMNSLKPEDTAVYYCAAVFSLIASSYDYWGQGTQVTVSS; high polyreactivity
QVQLVESGGGLVQAGGSLRLSCAASGFIFKHYAMGWYRQAPGKERELVAAISRSTGRTNYADSVKGRFTISRDNAKNTDYLQMNSLKPEDTAVYYCAAYRYLRYDYWGQGTQVTVSS; high polyreactivity
QVQLVESGAGLVQAGGSLRISGAASGRIFGKYAMGWYRQPPGKEREFVARISFSGGTTYYADSVKGRFTISRDNAKNTVYLQMNSLKPEDTAVYYCAARRQSGYGRQLDYWGQGTQVTVSS; high polyreactivity
